Biological target: T1, orthogonal hCD122 receptor (hoRb), hCD122 with H133D and Y134F (human, UniProt P14784 27-550); further: reference of the scale not given here
T1 sequence: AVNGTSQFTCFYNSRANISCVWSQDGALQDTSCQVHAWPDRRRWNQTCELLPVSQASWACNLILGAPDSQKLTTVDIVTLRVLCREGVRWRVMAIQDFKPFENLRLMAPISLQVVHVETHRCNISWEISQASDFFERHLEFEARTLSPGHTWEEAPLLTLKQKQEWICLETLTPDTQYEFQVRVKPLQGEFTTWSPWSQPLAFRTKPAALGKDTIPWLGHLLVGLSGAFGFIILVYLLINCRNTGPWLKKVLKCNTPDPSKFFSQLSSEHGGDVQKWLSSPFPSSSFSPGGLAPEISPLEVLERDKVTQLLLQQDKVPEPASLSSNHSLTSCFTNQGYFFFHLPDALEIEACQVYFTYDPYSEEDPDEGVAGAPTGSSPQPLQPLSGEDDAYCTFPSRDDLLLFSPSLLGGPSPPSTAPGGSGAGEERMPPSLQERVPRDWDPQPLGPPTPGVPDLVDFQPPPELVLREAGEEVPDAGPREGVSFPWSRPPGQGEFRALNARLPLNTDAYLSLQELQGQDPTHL
Test: cell-based or functional assay
property-label: Relative Proliferation Fold Change 3F8 1:2 (fold)

binder	output-unit	reported-measurement
L80F, SQVLKA (ligand) APTSSSTKKTQLQLSQLLVLLKAILNGINNYKNPKLTRMLTFKFYMPKKATELKHLQCLEEELKPLEEVLNLAQSKNFHFRPRDLISNINVIVLELKGSETTFMCEYADETATIVEFLNRWITFCQSIISTLT	fold	1.01

[1] Q126C, SQVLKA (ligand) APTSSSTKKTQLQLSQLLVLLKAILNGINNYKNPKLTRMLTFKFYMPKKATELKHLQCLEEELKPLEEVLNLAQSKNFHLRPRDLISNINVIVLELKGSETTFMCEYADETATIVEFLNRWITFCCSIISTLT
[2] L18S, SQVLKA (ligand) APTSSSTKKTQLQLSQLSVLLKAILNGINNYKNPKLTRMLTFKFYMPKKATELKHLQCLEEELKPLEEVLNLAQSKNFHLRPRDLISNINVIVLELKGSETTFMCEYADETATIVEFLNRWITFCQSIISTLT
[3] SQVSKA (ligand) APTSSSTKKTQLQLSQLLVSLKAILNGINNYKNPKLTRMLTFKFYMPKKATELKHLQCLEEELKPLEEVLNLAQSKNFHLRPRDLISNINVIVLELKGSETTFMCEYADETATIVEFLNRWITFCQSIISTLT
[4] V91K, SQVLKA (ligand) APTSSSTKKTQLQLSQLLVLLKAILNGINNYKNPKLTRMLTFKFYMPKKATELKHLQCLEEELKPLEEVLNLAQSKNFHLRPRDLISNINKIVLELKGSETTFMCEYADETATIVEFLNRWITFCQSIISTLT
INPUT: # ascending order, key=Relative Proliferation Fold Change 3F8 1:2 Returns: the labels listed in the requested order.
OUTPUT: 3, 1, 4, 2
